This listing pairs binders with measured Kd.
assayed target: T1, soluble cynomolgus monkey IL-6R (cynomolgus monkey, UniProt A0A2K5WN54 60-396)
T1 construct: extracellular domain; also called scyIL-6R; soluble cynomolgus monkey IL-6 Receptor; not shown: C-terminal His- or Avi-Tag
T1 sequence: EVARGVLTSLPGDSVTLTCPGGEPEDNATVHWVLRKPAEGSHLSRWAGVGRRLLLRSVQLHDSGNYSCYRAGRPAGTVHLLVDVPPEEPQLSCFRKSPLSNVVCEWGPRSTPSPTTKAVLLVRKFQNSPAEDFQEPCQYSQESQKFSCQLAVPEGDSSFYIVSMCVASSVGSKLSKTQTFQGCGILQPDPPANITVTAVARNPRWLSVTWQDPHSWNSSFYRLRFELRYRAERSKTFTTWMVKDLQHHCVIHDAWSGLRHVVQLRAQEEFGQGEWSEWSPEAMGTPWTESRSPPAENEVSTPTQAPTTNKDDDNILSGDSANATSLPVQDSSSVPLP
experimental details: SPR (Biacore 2000), mAb captured on anti-human IgG Fc, analyte in solution, 25 C, 1:1 Langmuir

>  <binder>
NI-1201-C antibody (antibody, V domains shown) VH: QVQLVQSGAEVKKPGSSVKVSCKASGGTFSSYAISWVRQAPGQGLEWMGGIIPAFETTKYAQKFQGRVTITADESTSTAYMELSSLRSEDTAVYYCARDRDILTDYYPLGGMDVWGQGTTVTVSS VL: AIQLTQSPSSLSASVGDRVTITCRASQGISSVLAWYQQKPGKAPKLLIYDASSLESGVPSRFSGSGSGTDFTLTISSLQPEDFATYYCQQSNSYPLTFGGGTKVEIKR

>  <Kd [nM]>
2.03

$$$$
>  <binder>
NI-1201 wild type (NI-1201-WT) antibody (antibody, V domains shown, Fully human monoclonal IgG (captured by anti-human IgG Fc in Biacore); also called 39B9 VL1) VH: QVQLVQSGAEVKKPGSSVKVSCKASGGTFSSYAISWVRQAPGQGLEWMGGIIPLFDTTKYAQQFQGRVTITADESTSTAYMELSSLRSEDTAVFYCARDRDILTDYYPMGGMDVWGQGTTVTVSS VL: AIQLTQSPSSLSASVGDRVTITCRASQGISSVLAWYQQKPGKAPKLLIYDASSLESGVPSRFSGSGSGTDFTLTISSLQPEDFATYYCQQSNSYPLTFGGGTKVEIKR

>  <Kd [nM]>
2.04

$$$$
